System: HOP-92
test_description: NCI tumour cell line growth inhibition, 48 h
Activity calls are given as the source filed them. No stated cut-off is given here; in the data, active = GI50 up to about 1.1 µM and inactive = higher.
Labels: active, inactive

[[record]]
molecule = "Cc1ccc(Oc2ccc(C)cc2[N+](=O)[O-])cc1"
assigned_category = "inactive"

[[record]]
molecule = "O=Cc1c2ccccc2n2ccc3c4ccccc4[nH]c3c12"
assigned_category = "inactive"

[[record]]
molecule = "CC1=CP(=O)(OC(C)C)CC(C)=C1Cl (stereo not given)"
assigned_category = "inactive"

[[record]]
molecule = "COc1cc(C2C3=C(COC3=O)OC(C)(C)Oc3cc4c(cc32)OCO4)cc(OC)c1OC (stereo not given)"
assigned_category = "inactive"

[[record]]
molecule = "Cc1cccc(NC(=O)CC(=O)N2N=C(N(CCC#N)c3ccc(Cl)cc3)CC2c2ccccc2)c1 (stereo not given)"
assigned_category = "inactive"

[[record]]
molecule = "COC(=O)[C@]1(C)CCCC2(C)C1CC[C@H]1C=C(C)[C@H]3CCC12C3 (stereo not given in full)"
assigned_category = "inactive"

[[record]]
molecule = "N#Cc1c(-c2ccccc2)cc(Nc2cccc(C(F)(F)F)c2)n2c1nc1ccccc12"
assigned_category = "active"

[[record]]
molecule = "[O-]c1c[n+](CC[n+]2cc([O-])on2)no1"
assigned_category = "inactive"

[[record]]
molecule = "Nc1nc(Cl)c(N)c(NCC2(CO)CCC(CCc3ccccc3)C2)n1 (stereo not given)"
assigned_category = "inactive"

[[record]]
molecule = "COC(=O)C1(C)CC2C(C)(CCC3(C)C4=CC=C5C(=CC(=O)C(O)=C5C)C4(C)CCC23C)CC1O (stereo not given)"
assigned_category = "active"


* * *

Tested on: U-251
test_description: NCI tumour cell line growth inhibition, 48 h
Activity calls are given as the source filed them. Rule as the data show it: active = GI50 up to about 1.1 µM and inactive = higher.
reported_property: GI50

[[record]]
compound = "NC(=S)N/N=C1\\NC(=O)/C(=C/c2ccc3c(c2)OCO3)S1"
reported_property = "GI50"
recorded_measurement = "22.6 µM (inactive)"

[[record]]
compound = "CN1C(=N\\S(=O)(=O)c2ccc(Cl)cc2)/C(=N/N=P(c2ccccc2)(c2ccccc2)c2ccccc2)c2ccccc21"
reported_property = "GI50"
recorded_measurement = "> 100 µM (inactive)"

[[record]]
compound = "CC(=O)c1sc2n(C)c(=O)c3ccccc3[n+]2c1C"
reported_property = "GI50"
recorded_measurement = "> 100 µM (inactive)"

[[record]]
compound = "CC(=O)N[C@@H]1C(O)CN2C(=O)C(=O)O[C@H](C(O)CO)[C@@H]12 (stereo partly drawn)"
reported_property = "GI50"
recorded_measurement = "> 100 µM (inactive)"

[[record]]
compound = "CC1=NN(C(=O)c2ccccc2O)C(=O)/C1=C/c1ccccc1O"
reported_property = "GI50"
recorded_measurement = "0.114 µM (active)"

[[record]]
compound = "CC(=O)CC(=O)Nc1ccc(OS(N)(=O)=O)cc1"
reported_property = "GI50"
recorded_measurement = "> 100 µM (inactive)"

[[record]]
compound = "COC(=O)C(C(=O)C(=O)NC1Nc2ccc(C)cc2S1)c1nc2ccc(Cl)cc2nc1O (stereo not drawn)"
reported_property = "GI50"
recorded_measurement = "> 100 µM (inactive)"

[[record]]
compound = "CCOc1ccccc1NC(=O)CC1SC(Nc2ccc([N+](=O)[O-])cc2)=NC1=O (stereo not drawn)"
reported_property = "GI50"
recorded_measurement = "14.3 µM (inactive)"

[[record]]
compound = "COC(=O)C1(CCCCCBr)CCCCCCCCCCC1=O (stereo not drawn)"
reported_property = "GI50"
recorded_measurement = "28.3 µM (inactive)"

[[record]]
compound = "CC1(C)[C@@H]2CC[C@@]1(C)[C@H](O)[C@@H]2SCc1ccccc1"
reported_property = "GI50"
recorded_measurement = "17.1 µM (inactive)"

[[record]]
compound = "CC1(C)S[C@@H]2[C@H](NC(=O)CCC[C@@H](N)C(=O)O)C(=O)N2[C@H]1C(=O)O"
reported_property = "GI50"
recorded_measurement = "> 25.6 µM (inactive)"

[[record]]
compound = "Nn1c(Cc2ccc(Cl)cc2)n[nH]c1=O"
reported_property = "GI50"
recorded_measurement = "> 100 µM (inactive)"

[[record]]
compound = "CC1SC(c2ccccc2)N(Nc2c3ccccc3nc3ccccc23)C1=O (stereo not drawn)"
reported_property = "GI50"
recorded_measurement = "> 100 µM (inactive)"

